Answer each item with its documented Binding selectivity ratio (Bcl-XL Ki/Bcl-2 Ki).
Test system: GST-Bcl-2
Test: TR-FRET binding assay, Bcl-2
Details: TR-FRET Ki values
Give bare numbers.

| cpd smiles | numeric readout |
| --- | --- |
| CN(C)CCCOc1ccc(-c2ccc(Cl)cc2)c(CN2CCN(c3ccc(C(=O)NS(=O)(=O)c4ccc(NCC5CCOCC5)c([N+](=O)[O-])c4)c(Oc4ccccc4)c3)CC2)c1 | 230.7 |

Moving on to another compound below.
State, in one line, measured Binding selectivity ratio (Bcl-XL Ki/Bcl-2 Ki) of "O=C(NS(=O)(=O)c1ccc(NCC2CCOCC2)c([N+](=O)[O-])c1)c1ccc(N2CCN(Cc3c(OCCN4CCOCC4)cccc3-c3ccc(Cl)cc3)CC2)cc1Oc1ccc2[nH]ccc2c1"
570.1

All values here come from patent US9125913B2.
